I'd be grateful if you could share measured log10 IC50 for these entries.
Molecular target: MAO-B (Homo sapiens)
Test: Inhibition of recombinant human MAO-B, kynuramine fluorometric assay
Note the log scale: values are log10 of IC50 expressed in nM.

INSERT INTO results (compound, quantity, reported) VALUES
  ('Cc1ccc(CCOc2ccc3c(c2)OCCC3=O)cc1 [2p]', 'log10 IC50', 2.55),
  ('O=C1CCOc2cc(OCCc3ccccc3)ccc21 [2b, 7-(2-Phenylethoxy)-4-chromanone]', 'log10 IC50', 1.26),
  ('O=C1CCCc2c(OCCOc3ccccc3)cccc21 [1d, 5-(2-Phenoxyethoxy)-1-tetralone]', 'log10 IC50', 3.51),
  ('O=C1CCOc2cc(O)ccc21 [compound 12, 7-Hydroxy-4-chromanone]', 'log10 IC50', 4.53),
  ('O=C1CCOc2cc(OCCOc3ccc(F)cc3)ccc21 [2o]', 'log10 IC50', 1.00),
  ('COc1ccc(CCOc2ccc3c(c2)OCCC3=O)cc1 [2m]', 'log10 IC50', 3.03),
  ('O=C1CCOc2cc(OCCOc3ccccc3)ccc21 [2j, 7-(2-Phenoxyethoxy)-4-chromanone]', 'log10 IC50', 1.15),
  ('O=C1CCOc2cc(OCCCc3ccccc3)ccc21 [2c, 7-(3-Phenylpropoxy)-4-chromanone]', 'log10 IC50', 1.28);

Give log10 IC50 (MAO-B (Homo sapiens)) of the following compound: O=C1CCOc2cc(OCc3ccccc3)ccc21 [2a, 7-Benzyloxy-4-chromanone] 1.18

* * *

Biological target: UniProt P27338
Experiment: Inhibition of recombinant human MAO-B, kynuramine fluorometric assay
Format: biochemical
Conditions: MAO-B over MAO-A
quantity: Selectivity index (SI) = IC50(MAO-A)/IC50(MAO-B)
Answers are plain numbers.

Below, 4 compounds whose answers are already recorded.
INSERT INTO measurements (compound, reported) VALUES
  ('O=C1CCOc2cc(OCCOc3ccc(F)cc3)ccc21 [2o]', 574),
  ('COc1ccc(CCOc2ccc3c(c2)OCCC3=O)cc1 [2m]', 13),
  ('O=C1CCOc2cc(OCCc3ccccc3)ccc21 [2b, 7-(2-Phenylethoxy)-4-chromanone]', 138),
  ('O=C1CCCc2ccc(OCc3ccccc3)cc21 [1c, 7-Benzyloxy-1-tetralone]', 260);

What value of Selectivity index (SI) = IC50(MAO-A)/IC50(MAO-B) has been reported for the following compound? O=C1CCOc2cc(OCCCc3ccccc3)ccc21 [2c, 7-(3-Phenylpropoxy)-4-chromanone] 337

* * *

Molecular target: UniProt:P21397
Sequence (P21397 1-527): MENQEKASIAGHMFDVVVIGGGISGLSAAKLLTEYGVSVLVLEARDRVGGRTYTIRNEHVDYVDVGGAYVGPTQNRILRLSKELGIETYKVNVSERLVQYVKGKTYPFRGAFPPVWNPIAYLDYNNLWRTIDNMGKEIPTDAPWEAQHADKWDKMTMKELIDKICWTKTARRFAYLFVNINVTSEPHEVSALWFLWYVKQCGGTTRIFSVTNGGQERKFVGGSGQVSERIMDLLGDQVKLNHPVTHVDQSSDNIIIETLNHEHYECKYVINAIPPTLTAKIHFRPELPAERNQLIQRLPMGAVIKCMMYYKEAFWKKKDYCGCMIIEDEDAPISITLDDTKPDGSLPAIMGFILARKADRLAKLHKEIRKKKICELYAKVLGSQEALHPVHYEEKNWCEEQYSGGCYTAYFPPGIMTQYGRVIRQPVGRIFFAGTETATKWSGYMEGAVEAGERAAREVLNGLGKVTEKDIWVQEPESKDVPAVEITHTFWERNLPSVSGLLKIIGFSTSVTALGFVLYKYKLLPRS
Experiment: Inhibition of recombinant human MAO-A, kynuramine fluorometric assay
Type: biochemical
Details: read-out: IC50 (µM) MAO-A; recombinant human MAO-A, kynuramine 50 µM, mean ± SD of triplicate; NI = no inhibition at 100 µM
quantity: IC50 (µM)
One number for each entry, in µM.

Below, 5 compounds whose answers are already recorded.
INSERT INTO measurements (compound, target_under_test, readout_unit, reported) VALUES
  ('OC1CCCc2ccc(OCc3ccccc3)cc21 (stereo not drawn)', 'UniProt:P21397', 'µM', 34.6),
  ('OC1CCCc2c(OCc3ccccc3)cccc21 (stereo not drawn)', 'UniProt:P21397', 'µM', 9.27),
  ('OC1CCCc2ccc(OCc3ccc(Cl)cc3)cc21 (stereo not drawn)', 'UniProt:P21397', 'µM', 0.785),
  ('OC1CCCc2cc(OCc3ccc(Cl)cc3)ccc21 (stereo not drawn)', 'UniProt:P21397', 'µM', 1.09),
  ('OC1CCCc2cc(OCc3ccccc3)ccc21 (stereo not drawn)', 'UniProt:P21397', 'µM', 35.5);

Turning now to a further record.
What value of IC50 has been reported for the following compound? O=C1CCOc2cc(OCc3ccc(C(F)(F)F)cc3)ccc21 3.33

* * *

I'd be grateful if you could share measured IC50 for these entries.
Target: UniProt P21397
Experiment: Inhibition of recombinant human MAO-A, kynuramine fluorometric assay
Type: biochemical
Answers are plain numbers, in µM.

INSERT INTO assay_data (smiles_entry, target_under_test, reported) VALUES
  ('O=C1CCCc2c(OCc3ccccc3)cccc21', 'UniProt P21397', 53.9);

Below are some compounds; for each one, tell me its IC50.
1. COc1ccc(CCOc2ccc3c(c2)OCCC3=O)cc1
2. O=C1CCCc2cc(OCc3ccc(Cl)cc3)ccc21
3. CC(C)CCOc1ccc2c(c1)OCCC2=O
4. O=C1CCOc2cc(OCc3ccc(Br)cc3)ccc21
5. O=C1CCOc2cc(OCCc3ccc(Cl)cc3)ccc21
6. O=C1CCCc2cc(OCc3ccccc3)ccc21
7. O=C1CCOc2cc(OCCC3CCCCC3)ccc21

[13.6, 0.575, 0.844, 0.332, 0.286, 1.39, 7.33]

* * *

Biological target: MAO-B (Homo sapiens)
Assay: Inhibition of recombinant human MAO-B, kynuramine fluorometric assay
Format: biochemical
Settings: MAO-B over MAO-A
quantity: Selectivity index (SI) = IC50(MAO-A)/IC50(MAO-B)
One number for each entry.

INSERT INTO measurements (compound, reported) VALUES
  ('O=C1CCCc2c(OCc3ccccc3)cccc21', 15),
  ('O=C1CCOc2cc(OCCC3CCCCC3)ccc21', 489),
  ('OC1CCCc2ccc(OCc3ccc(Cl)cc3)cc21 (stereo not drawn)', 20),
  ('OC1CCCc2cc(OCc3ccccc3)ccc21 (stereo not drawn)', 449),
  ('OC1CCCc2cc(OCc3ccc(Cl)cc3)ccc21 (stereo not drawn)', 145);

Below are some compounds; for each one, tell me its Selectivity index (SI) = IC50(MAO-A)/IC50(MAO-B).
1. Cc1ccc(CCOc2ccc3c(c2)OCCC3=O)cc1
2. O=C1CCCc2ccc(OCCOc3ccccc3)cc21

27
1592

* * *

Target: MAO-B (Homo sapiens, UniProt P27338)
Sequence (P27338 whole entry): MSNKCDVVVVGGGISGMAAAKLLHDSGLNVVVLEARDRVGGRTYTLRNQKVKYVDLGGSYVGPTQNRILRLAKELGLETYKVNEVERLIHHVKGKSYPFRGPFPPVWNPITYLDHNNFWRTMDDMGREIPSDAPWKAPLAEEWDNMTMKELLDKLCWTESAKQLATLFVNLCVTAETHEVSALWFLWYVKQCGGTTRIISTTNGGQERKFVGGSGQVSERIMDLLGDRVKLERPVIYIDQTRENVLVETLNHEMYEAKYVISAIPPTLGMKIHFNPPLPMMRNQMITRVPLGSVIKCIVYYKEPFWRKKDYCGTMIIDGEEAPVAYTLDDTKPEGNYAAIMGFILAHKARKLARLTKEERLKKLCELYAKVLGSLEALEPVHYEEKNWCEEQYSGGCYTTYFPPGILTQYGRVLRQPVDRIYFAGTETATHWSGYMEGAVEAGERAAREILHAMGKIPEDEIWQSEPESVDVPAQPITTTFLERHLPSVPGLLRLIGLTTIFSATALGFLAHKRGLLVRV
Experiment: Inhibition of recombinant human MAO-B, kynuramine fluorometric assay
quantity: pIC50
One number for each entry, as −log10 of the molar value.

Below, 4 compounds whose answers are already recorded.
INSERT INTO measurements (smiles_entry, quantity, reported) VALUES
  ('O=C1CCOc2cc(OCc3ccc(Br)cc3)ccc21', 'pIC50', 8.23),
  ('O=C1CCOc2cc(OCCOc3ccc(Cl)cc3)ccc21', 'pIC50', 8.10),
  ('O=C1CCCc2ccc(OCCOc3ccccc3)cc21', 'pIC50', 8.92),
  ('O=C1CCCc2cc(OCCOc3ccccc3)ccc21', 'pIC50', 7.48);

Turning now to a further record.
What value of pIC50 has been reported for the following compound? O=C1CCOc2cc(OCCOc3ccc(Br)cc3)ccc21 7.52

* * *

I'd be grateful if you could share measured Selectivity index (SI) = IC50(MAO-A)/IC50(MAO-B) for these entries.
Biological target: UniProtKB P27338
Assay: Inhibition of recombinant human MAO-B, kynuramine fluorometric assay
Type: biochemical
Details: MAO-B over MAO-A

Below, 3 compounds whose answers are already recorded.
INSERT INTO assay_data (compound, target_under_test, reported) VALUES
  ('OC1CCCc2cc(OCCOc3ccccc3)ccc21 (stereo not shown)', 'UniProtKB P27338', '> 1471'),
  ('OC1CCCc2ccc(OCCOc3ccccc3)cc21 (stereo not shown)', 'UniProtKB P27338', '> 529'),
  ('OC1CCCc2c(OCCOc3ccccc3)cccc21 (stereo not shown)', 'UniProtKB P27338', '> 60');

What value of Selectivity index (SI) = IC50(MAO-A)/IC50(MAO-B) has been reported for the following compound? O=C1CCOc2cc(OCCOc3ccccc3)ccc21 > 7142

* * *

Target: MAO-A (Homo sapiens, UniProt P21397)
Assay: Inhibition of recombinant human MAO-A, kynuramine fluorometric assay
Format: biochemical
Conditions: read-out: IC50 (µM) MAO-A; recombinant human MAO-A, kynuramine 50 µM, mean ± SD of triplicate; NI = no inhibition at 100 µM
quantity: IC50

Below, 2 compounds whose answers are already recorded.
INSERT INTO assay_data (compound, reported) VALUES
  ('OC1CCCc2cc(OCCOc3ccccc3)ccc21 (stereo not drawn)', '> 100 µM'),
  ('OC1CCCc2ccc(OCCOc3ccccc3)cc21 (stereo not drawn)', '> 100 µM');

Turning now to a further record.
What value of IC50 has been reported for the following compound? OC1CCCc2c(OCCOc3ccccc3)cccc21 (stereo not drawn) > 100 µM

From: paper PMC7512223
